Listed here are molecules together with their documented Growth Rate.
# Test system: U2OS
# test.protocol: Incucyte cell viability with U2OS; further: filed as whole numbers so only -1 and 0 and 1 occur
# Type: toxicity, cell-based
# settings: human, 0 h, 10 µM, compound concentration 10 uM, replicate number 2, timepoint 0 hours
Answer as a number with no unit attached.

Some entries whose results are on file:
O=C(NCc1ccccc1)c1ccc(S(=O)(=O)NCc2ccccc2)cc1: 1
N#Cc1ccc(NC(=O)Nc2ccccc2Br)c2nn[nH]c12: 1
Nc1c(C(=O)NCc2ccc(C(=O)NCCCC3CCCCC3)cc2)cnn1-c1ccccc1: 0
Cc1cc(C)cc(-c2cnc3cc(Cl)c(-c4cccc(O)c4)cc3c2OCCCN)c1: 0
CC(C)S(=O)(=O)c1ccc2nccc(Nc3ccc4scnc4c3)c2c1: 0
C=CC(=O)Nc1cccc(C(=O)Nc2ccc(Nc3cc(-c4[nH]c(SC)nc4C)ccn3)cc2)c1: 1
Nc1nc(NCc2ccccc2)nc(-c2ccccc2CO)n1: 0
Cc1nc(-c2ccc(-c3ccc(C(=O)N4CCc5cc6c(cc54)C4(CCN(C)CC4)CO6)cc3)c(C)c2)no1: 0

Below: the item to evaluate.
Qu. Bench note: what Growth Rate did `CC(=O)Nc1c(C(C)=O)c(=O)n(C)c2nc(-c3ccc(Cl)cc3Cl)c(-c3ccc(Cl)cc3)cc12` show?
Ans. 0

---

# System: U2OS
# test.protocol: Multiplex assay against U2OS
# Type: toxicity, cell-based
# settings: human, 12 h, 10 µM, compound concentration 10 uM, replicate 2
value.kind: Population Normal (%)
Hi, when you answer, please include the unit after the number. Thanks!

Some entries whose results are on file:
CC(C)(O)CNc1ncc(-c2ccnc(Nc3ccnc(Cl)c3)n2)c(CC2CC2)n1: 92%
Cc1csc2c(N[C@@H](C)CN3CCN(S(=O)(=O)c4ccc(Cl)c(Cl)c4)CC3)ncnc12: 95%
CN(C)C(=O)N[C@H]1CC[C@H](CCN2CCN(c3cccc(Cl)c3Cl)CC2)CC1.Cl [CARIPRAZINE HYDROCHLORIDE]: 96%

Below: the item to evaluate.
Qu. Bench note: what Population Normal (%) did `COc1cc2nccc(Oc3ccc(NC(=O)Nc4cc(C)on4)c(Cl)c3)c2cc1OC.O` show?
Ans. 96%

---

# System: HEK-293T
# test.protocol: Incucyte cell viability with HEK293T; further: filed as whole numbers so only -1 and 0 and 1 occur
# Format: toxicity, cell-based
# settings: human, 0 h, 10 µM, compound concentration 10 uM, replicate number 2, timepoint 0 hours
Listed here are compounds together with their documented Growth Rate.
Answer as a number with no unit attached.

Some entries whose results are on file:
C[C@H]1CC(=O)Nc2cc(C(=O)NCCC3CC3)ccc2N1C(=O)N1CC2CC2C1 (some centres undefined): 1
CNCCN1CCC(OCc2ccccc2)CC1: 0
Br.Br.N=C(N)SCCc1c[nH]cn1: 0

Qu. Bench note: what Growth Rate did `CN(C)c1ncnc(-c2ccc3nc(Nc4cc(CN5CCN(C(=O)CC(F)(F)F)CC5)ccn4)[nH]c3c2)c1Cl` show?
Ans. 0

Qu. Bench note: what Growth Rate did `C[C@@H](c1cccc(CN)c1)n1cc(Cl)cc(C(N)=O)c1=N.Cl` show?
Ans. 1

Qu. Bench note: what Growth Rate did CN([C@@H]1CCc2c(CC(=O)O)c3cc(S(C)(=O)=O)ccc3n2C1)S(=O)(=O)c1ccc(F)cc1 [CRTH2-negative-control] show?
Ans. 0

Qu. Bench note: what Growth Rate did `CS(=O)(=O)c1cccc(NC(=O)N(Cc2ccc(C(=O)Nc3nn[nH]n3)cc2)c2ccc(C3CCCCC3)cc2)c1` show?
Ans. 0

Qu. Bench note: what Growth Rate did `Nc1nc(NCc2ccccc2)nc(-c2ccccc2CO)n1` show?
Ans. 0

Qu. Bench note: what Growth Rate did CN(C)C(=O)N[C@H]1CC[C@H](CCN2CCN(c3cccc(Cl)c3Cl)CC2)CC1.Cl [CARIPRAZINE HYDROCHLORIDE] show?
Ans. 1

Qu. Bench note: what Growth Rate did `O=C(/C=C/N1C[C@H]2C[C@@H]1CN2c1ccccn1)c1ccccc1O` show?
Ans. 1

Qu. Bench note: what Growth Rate did `COc1ccc(Cn2ccc3ccc(C(=O)NO)cc32)cc1` show?
Ans. 1

Qu. Bench note: what Growth Rate did `Cc1nc(-c2ccc(-c3ccc(C(=O)N4CCc5cc6c(cc54)C4(CCN(C)CC4)CO6)cc3)c(C)c2)no1` show?
Ans. 0

Qu. Bench note: what Growth Rate did `Cc1c(-c2ccc(O)cc2)n(Cc2ccc(OCCN3CCCCCC3)cc2)c2ccc(O)cc12` show?
Ans. 0

Qu. Bench note: what Growth Rate did `O=C(O)c1ccc(-c2coc3ncc(-c4ccccc4)cc23)cc1Cl` show?
Ans. 1

Qu. Bench note: what Growth Rate did `Clc1cccc(-c2nnnn2Cc2cccnc2)c1Cl` show?
Ans. 0

Qu. Bench note: what Growth Rate did `CN(C)S(=O)(=O)c1ccc(NC(=S)N2CCC(C(O)(c3ccccc3)c3ccccc3)CC2)cc1` show?
Ans. 0

Qu. Bench note: what Growth Rate did N#CC(Cc1ccc(O)cc1)c1ccc(O)cc1 (centres undefined) show?
Ans. 0

Qu. Bench note: what Growth Rate did `O=C(NCCN1CCOCC1)c1ccc2c(c1)C(=O)c1ccc(Nc3ccc(F)c(NC(=O)c4ccccc4)c3)cc1CC2` show?
Ans. 0

Qu. Bench note: what Growth Rate did `O=C(NCCCC1CCCCC1)c1ccc(CNC(=O)c2cnn(-c3ccccc3)c2C(F)(F)F)cc1` show?
Ans. 1

---

# System: HEK-293T
# test.protocol: Multiplex assay against HEK293T
# Type: toxicity, cell-based
# settings: human, 12 h, 10 µM, compound concentration 10 uM, replicate 2
Each record's class is read off its Population Fragmented Nuclei (%) using these ranges: Low: < 4%; Medium: ≥ 4% and < 6%; High: ≥ 6%

Example entries begin here.
Cl.N#Cc1ccc2[nH]cc(CCCCN3CCN(c4ccc5oc(C(N)=O)cc5c4)CC3)c2c1 [VILAZODONE HYDROCHLORIDE]: High
CN1CCN(c2ccc(OC(F)(F)F)c(Nc3ncc4c(n3)-c3c(c(C(N)=O)nn3CCO)CC4)c2)CC1 [ONVANSERTIB]: Medium
Cc1nc(-c2ccc(-c3ccc(C(=O)N4CCc5cc6c(cc54)C4(CCN(C)CC4)CO6)cc3)c(C)c2)no1 [SB-224289]: Low
C=CC(=O)Nc1ccc2ncnc(Nc3ccc(OCc4cccc(F)c4)c(Cl)c3)c2c1.Cc1ccc(S(=O)(=O)O)cc1: High

Qu. Sort `OC1(c2ccc(Cl)cc2)CCN(Cc2c[nH]c3ccccc23)CC1` into one of the categories.
Ans. Medium

Qu. Sort Cc1nc(-c2cn3c(n2)-c2ccc(-c4cnn(C(C)(C)C(N)=O)c4)cc2OCC3)n(C(C)C)n1 [TASELISIB] into one of the categories.
Ans. High

Qu. Sort Cc1c(-c2ccc(O)cc2)n(Cc2ccc(OCCN3CCCCCC3)cc2)c2ccc(O)cc12 [BAZEDOXIFENE] into one of the categories.
Ans. High

Qu. Sort COc1cccc([C@@H](C)NCCCc2ccccc2Cl)c1.Cl [TECALCET HYDROCHLORIDE] into one of the categories.
Ans. Low

---

# Test system: U2OS
# test.protocol: Multiplex assay against U2OS
# Type: toxicity, cell-based
# settings: human, 48 h, 1 µM, compound concentration 1 uM, replicate 1
Given measured Population Pyknosed Nuclei (%), output Condition met if it is greater than or equal to 10% and Condition not met if not.

Qu. Exam item: decide whether the reported Population Pyknosed Nuclei (%) for `COc1ncc(-c2ccc3nccc(-c4ccnnc4)c3c2)cc1NS(=O)(=O)c1ccc(F)cc1F` is at least 10%.
Ans. Condition met

Qu. Exam item: decide whether the reported Population Pyknosed Nuclei (%) for CN(C)C(=O)N[C@H]1CC[C@H](CCN2CCN(c3cccc(Cl)c3Cl)CC2)CC1.Cl [CARIPRAZINE HYDROCHLORIDE] is at least 10%.
Ans. Condition not met

Qu. Exam item: decide whether the reported Population Pyknosed Nuclei (%) for `CN1CCN(CCOc2cc(OC3CCOCC3)c3c(Nc4c(Cl)ccc5c4OCO5)ncnc3c2)CC1` is at least 10%.
Ans. Condition met

Qu. Exam item: decide whether the reported Population Pyknosed Nuclei (%) for `CNc1nc(NCc2ccc(NS(C)(=O)=O)cc2Cl)cc(-c2ccccn2)n1` is at least 10%.
Ans. Condition met

Qu. Exam item: decide whether the reported Population Pyknosed Nuclei (%) for `CN1CCN(c2ccc(OC(F)(F)F)c(Nc3ncc4c(n3)-c3c(c(C(N)=O)nn3CCO)CC4)c2)CC1` is at least 10%.
Ans. Condition met

Qu. Exam item: decide whether the reported Population Pyknosed Nuclei (%) for `Cc1c(-c2ccc(O)cc2)n(Cc2ccc(OCCN3CCCCCC3)cc2)c2ccc(O)cc12` is at least 10%.
Ans. Condition not met

Qu. Exam item: decide whether the reported Population Pyknosed Nuclei (%) for `CN(C)CC#Cc1ccc(OCCCc2sc(N3CCc4cccc(C(=O)Nc5nc6ccccc6s5)c4C3)nc2C(=O)O)c(F)c1` is at least 10%.
Ans. Condition met

Source listed as ChEMBL document CHEMBL4689842.
